test system: Staphylococcus epidermidis; test: Antibacterial activity against erythromycin-resistant Staphylococcus epidermidis 19-11 assessed as inhibition of visible bacterial growth incubated for 18 hrs by broth microdilution method; assay type: functional
Threshold 0.2 µg/mL. MIC below it: rule met. MIC at it or above: rule not met.

Task: Take the molecule CC[C@H]1OC(=O)[C@@](C)(F)C(=O)[C@H](C)[C@@H](O[C@@H]2O[C@H](C)C[C@H](N(C)C)[C@H]2O)[C@](C)(OC)C[C@@H](C)C(=O)[C@H](C)[C@H]2N(CCCOC(=O)Nc3cc(C)cc(C)c3)C(=O)O[C@]12C and say whether its MIC is less than 0.2 µg/mL.
Result: rule not met

Task: Take the molecule CCOc1ccccc1NC(=O)OCCCN1C(=O)O[C@]2(C)[C@@H](CC)OC(=O)[C@@](C)(F)C(=O)[C@H](C)[C@@H](O[C@@H]3O[C@H](C)C[C@H](N(C)C)[C@H]3O)[C@](C)(OC)C[C@@H](C)C(=O)[C@H](C)[C@@H]12 and say whether its MIC is less than 0.2 µg/mL.
Result: rule met

Task: Take the molecule CC[C@H]1OC(=O)[C@@](C)(F)C(=O)[C@H](C)[C@@H](O[C@@H]2O[C@H](C)C[C@H](N(C)C)[C@H]2O)[C@](C)(OC)C[C@@H](C)C(=O)[C@H](C)[C@H]2N(CCCOC(=O)Nc3cccc(C)c3C)C(=O)O[C@]12C and say whether its MIC is less than 0.2 µg/mL.
Result: rule met

Task: Take the molecule CC[C@H]1OC(=O)[C@H](C)C(=O)[C@H](C)[C@@H](O[C@@H]2O[C@H](C)C[C@H](N(C)C)[C@H]2O)[C@](C)(OC)C[C@@H](C)C(=O)[C@H](C)[C@H]2N(CCCOC(=O)Nc3cccc(C)c3)C(=O)O[C@]12C and say whether its MIC is less than 0.2 µg/mL.
Result: rule not met

Task: Take the molecule CC[C@H]1OC(=O)[C@@](C)(F)C(=O)[C@H](C)[C@@H](O[C@@H]2O[C@H](C)C[C@H](N(C)C)[C@H]2O)[C@](C)(OC)C[C@@H](C)C(=O)[C@H](C)[C@H]2N(CCCOC(=O)Nc3ccc4c(c3)CCO4)C(=O)O[C@]12C and say whether its MIC is less than 0.2 µg/mL.
Result: rule met

====

tested on: Staphylococcus epidermidis; test: Potency index, ratio of telithromycin MIC to test compound MIC for antibacterial activity against erythromycin-resistant Staphylococcus epidermidis 19-11 assessed as inhibition of visible bacterial growth incubated for 18 hrs by broth microdilution method; assay type: functional
OBSERVED PROPERTY: Ratio
Output: the number by itself.

MOLECULAR STRING	READING
CC[C@H]1OC(=O)[C@@](C)(F)C(=O)[C@H](C)[C@@H](O[C@@H]2O[C@H](C)C[C@H](N(C)C)[C@H]2O)[C@](C)(OC)C[C@@H](C)C(=O)[C@H](C)[C@H]2N(CCCOC(=O)Nc3cccc(SC)c3)C(=O)O[C@]12C	4
CC[C@H]1OC(=O)[C@@](C)(F)C(=O)[C@H](C)[C@@H](O[C@@H]2O[C@H](C)C[C@H](N(C)C)[C@H]2O)[C@](C)(OC)C[C@@H](C)C(=O)[C@H](C)[C@H]2N(CCCOC(=O)Nc3cccc(F)c3)C(=O)O[C@]12C	4

Consider now this further compound.
Form field Ratio for item CC[C@H]1OC(=O)[C@@](C)(F)C(=O)[C@H](C)[C@@H](O[C@@H]2O[C@H](C)C[C@H](N(C)C)[C@H]2O)[C@](C)(OC)C[C@@H](C)C(=O)[C@H](C)[C@H]2N(CCCOC(=O)Nc3cccc4ccccc34)C(=O)O[C@]12C on Staphylococcus epidermidis: 4

This collection of values is drawn from ChEMBL document CHEMBL5543097.
